# TEST_TARGET: Adrenergic receptor alpha-1 (Rattus norvegicus, UniProt P15823+P23944+P43140)
# TEST: Displacement of [3H]prazosin from alpha1 adrenergic receptor in rat brain
# Assay type: tissue-based
Would you kindly list IC50 for each of these compounds?
# output: bare number, implied unit µM

Reported IC50 ( CCCCN(CCc1ccc(Cl)c(Cl)c1)C[C@H](O)COc1ccc(NS(C)(=O)=O)cc1 ) = 4.9

IC50 measured on CS(=O)(=O)Nc1ccc(OC[C@@H](O)CNCCc2ccc(Cl)c(Cl)c2)cc1 = 2.4

For Cc1ccc(CCNC[C@H](O)COc2ccc(NS(C)(=O)=O)cc2)cc1C the compound record lists IC50 as 2.2

Entry under test: CCN(CCc1ccc(Cl)c(Cl)c1)C[C@H](O)COc1ccc(NS(C)(=O)=O)cc1 . Its IC50 was 3.5

What the record says about CN(CCc1ccc(Cl)c(Cl)c1)C[C@H](O)COc1ccc(NS(C)(=O)=O)cc1 : IC50 is 1.4

Lookup result for CS(=O)(=O)Nc1ccc(OC[C@@H](O)CNCCc2ccc(Cl)cc2)cc1 ; measured IC50: 9.5

----------
# TEST_TARGET: hERG (KCNH2) (Homo sapiens, UniProt Q12809)
# Sequence (Q12809 whole entry): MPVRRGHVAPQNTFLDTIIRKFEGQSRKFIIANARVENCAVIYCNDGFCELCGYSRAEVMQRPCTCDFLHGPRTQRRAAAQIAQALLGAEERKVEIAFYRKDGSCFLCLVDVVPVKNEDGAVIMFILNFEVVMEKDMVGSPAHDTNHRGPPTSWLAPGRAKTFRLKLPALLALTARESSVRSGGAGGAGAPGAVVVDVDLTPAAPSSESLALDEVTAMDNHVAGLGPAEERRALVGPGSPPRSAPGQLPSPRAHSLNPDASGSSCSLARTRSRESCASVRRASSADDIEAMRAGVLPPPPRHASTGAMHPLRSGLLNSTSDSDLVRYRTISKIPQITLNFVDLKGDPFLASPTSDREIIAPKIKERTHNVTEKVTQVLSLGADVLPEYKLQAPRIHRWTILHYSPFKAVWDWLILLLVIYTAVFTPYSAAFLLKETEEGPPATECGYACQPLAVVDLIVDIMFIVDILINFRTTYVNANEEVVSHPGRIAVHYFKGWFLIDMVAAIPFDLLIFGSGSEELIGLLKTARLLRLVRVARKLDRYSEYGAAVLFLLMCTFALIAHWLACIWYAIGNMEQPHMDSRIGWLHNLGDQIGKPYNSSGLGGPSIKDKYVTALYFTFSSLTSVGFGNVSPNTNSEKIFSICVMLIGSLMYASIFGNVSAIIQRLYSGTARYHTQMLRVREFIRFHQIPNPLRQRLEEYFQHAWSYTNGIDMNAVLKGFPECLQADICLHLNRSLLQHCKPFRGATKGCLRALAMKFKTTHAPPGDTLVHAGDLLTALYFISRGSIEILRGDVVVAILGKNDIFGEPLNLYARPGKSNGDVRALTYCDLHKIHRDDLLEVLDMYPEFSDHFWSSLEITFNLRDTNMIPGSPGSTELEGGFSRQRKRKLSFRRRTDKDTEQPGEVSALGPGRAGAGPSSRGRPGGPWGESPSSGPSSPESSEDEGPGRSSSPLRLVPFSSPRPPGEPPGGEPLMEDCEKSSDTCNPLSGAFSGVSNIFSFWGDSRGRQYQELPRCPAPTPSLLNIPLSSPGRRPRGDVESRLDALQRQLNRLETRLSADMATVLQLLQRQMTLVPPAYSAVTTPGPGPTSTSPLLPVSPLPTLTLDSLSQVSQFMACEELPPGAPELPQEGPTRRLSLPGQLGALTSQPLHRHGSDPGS
# TEST: Displacement of [3H]astemizole from human ERG expressed in HEK293 cells
# STATED_CONDITIONS: human, HEK293 cells expressing human ERG, probe [3H]astemizole
VALUE_KIND: IC20

# IC20 of CS(=O)(=O)Nc1ccc(OC[C@@H](O)CNCCc2ccc(Cl)c(Cl)c2)cc1 = > 174 nM

----------
# TEST: Protein binding in human plasma
# Format: ADME, cell-free
# STATED_CONDITIONS: read-out: PPB (converted)
VALUE_KIND: fraction unbound
Number, no unit, nothing else.

fraction unbound for CS(=O)(=O)Nc1ccc(OC[C@@H](O)CNCCc2ccc(Cl)c(Cl)c2)cc1 is 0.02

----------
# TEST_TARGET: Glutamate NMDA receptor; Grin1/Grin2b (Rattus norvegicus, UniProt P35439+Q00960)
# Sequence (Q00960 whole entry, other chains not shown): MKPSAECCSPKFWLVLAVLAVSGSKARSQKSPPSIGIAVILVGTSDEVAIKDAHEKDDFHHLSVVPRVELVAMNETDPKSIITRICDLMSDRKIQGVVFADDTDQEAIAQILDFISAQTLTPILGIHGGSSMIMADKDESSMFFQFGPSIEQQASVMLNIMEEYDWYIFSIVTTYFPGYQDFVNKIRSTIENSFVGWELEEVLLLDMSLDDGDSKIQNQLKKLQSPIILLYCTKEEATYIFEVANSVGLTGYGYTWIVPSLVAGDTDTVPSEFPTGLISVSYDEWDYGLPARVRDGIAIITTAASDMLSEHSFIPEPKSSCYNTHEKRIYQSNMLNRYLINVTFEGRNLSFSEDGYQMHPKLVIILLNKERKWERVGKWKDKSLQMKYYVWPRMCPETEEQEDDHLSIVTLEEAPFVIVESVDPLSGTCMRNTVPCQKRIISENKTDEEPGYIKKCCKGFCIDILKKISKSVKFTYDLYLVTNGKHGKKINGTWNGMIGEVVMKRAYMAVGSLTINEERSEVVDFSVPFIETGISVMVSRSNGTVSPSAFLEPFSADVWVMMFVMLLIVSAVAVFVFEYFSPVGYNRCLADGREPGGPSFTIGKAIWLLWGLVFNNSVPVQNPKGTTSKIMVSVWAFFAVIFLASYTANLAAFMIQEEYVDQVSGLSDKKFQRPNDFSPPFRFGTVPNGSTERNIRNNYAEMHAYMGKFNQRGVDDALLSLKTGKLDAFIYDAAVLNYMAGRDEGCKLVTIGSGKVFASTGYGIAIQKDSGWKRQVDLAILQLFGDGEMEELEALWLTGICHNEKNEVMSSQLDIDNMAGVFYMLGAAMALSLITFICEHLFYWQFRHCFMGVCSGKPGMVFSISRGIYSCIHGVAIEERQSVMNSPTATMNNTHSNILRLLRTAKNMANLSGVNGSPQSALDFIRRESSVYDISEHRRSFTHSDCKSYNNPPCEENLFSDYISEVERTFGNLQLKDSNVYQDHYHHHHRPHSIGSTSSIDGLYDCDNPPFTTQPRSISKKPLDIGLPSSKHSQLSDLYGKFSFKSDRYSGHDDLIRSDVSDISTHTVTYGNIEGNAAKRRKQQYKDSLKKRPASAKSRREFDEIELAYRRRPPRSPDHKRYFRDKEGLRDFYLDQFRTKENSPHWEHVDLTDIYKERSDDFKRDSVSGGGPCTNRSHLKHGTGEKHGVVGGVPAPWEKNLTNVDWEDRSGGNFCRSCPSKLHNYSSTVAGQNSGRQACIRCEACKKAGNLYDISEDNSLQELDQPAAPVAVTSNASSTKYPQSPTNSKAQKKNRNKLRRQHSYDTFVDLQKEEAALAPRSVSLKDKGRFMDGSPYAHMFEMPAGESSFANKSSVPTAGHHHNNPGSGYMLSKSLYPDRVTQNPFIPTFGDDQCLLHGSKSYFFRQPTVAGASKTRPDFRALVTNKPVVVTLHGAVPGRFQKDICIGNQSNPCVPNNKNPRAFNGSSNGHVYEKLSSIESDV
# TEST: Inhibition of rat recombinant NR1/NR2B receptor expressed in Xenopus oocytes assessed as inhibition of glutamate and glycine-induced evoked current by two electrode voltage clamp method
# Type: cell-based, Oocyte
Please respond with Condition met when measured IC50 is strictly beneath 0.6 µM, and with Condition not met in all other cases.

Quick check: does CCCN(CCc1ccc(Cl)c(Cl)c1)C[C@H](O)COc1ccc(NS(C)(=O)=O)cc1 have IC50 under 0.6 µM? Condition not met

Is the reported IC50 for CS(=O)(=O)Nc1ccc(OC[C@@H](O)CNCCc2ccc([N+](=O)[O-])cc2)cc1 strictly below 0.6 µM? Condition not met

Confirm or reject: IC50 of CS(=O)(=O)Nc1ccc(OC[C@H](O)CN(CCO)CCc2ccc(Cl)c(Cl)c2)cc1 lies strictly below 0.6 µM Condition met

In plain terms, does CS(=O)(=O)Nc1ccc(OC[C@@H](O)CNCCc2ccc(Cl)c(Cl)c2)c(F)c1 come in under 0.6 µM for IC50? Condition met

Lab note: confirm whether the reported IC50 for this molecule is below 0.6 µM, equality not counting. molecule: CS(=O)(=O)Nc1ccc(OC[C@@H](O)CNCCc2cccc(Cl)c2)cc1 Condition not met

Please state whether IC50 is below 0.6 µM for CN(c1ccc(OC[C@@H](O)CNCCc2ccc(Cl)c(Cl)c2)cc1)S(C)(=O)=O Condition not met

Criterion: IC50 strictly below 0.6 µM. Is it met by CS(=O)(=O)Nc1ccc(OC[C@@H](O)CNCCc2ccc(Cl)c(Cl)c2)cc1F ? Condition met

In the record for COc1ccccc1CN(CCc1ccc(Cl)c(Cl)c1)C[C@H](O)COc1ccc(NS(C)(=O)=O)cc1 , is IC50 less than 0.6 µM? Condition not met

----------
# TEST: Protein binding in mouse plasma
# Format: ADME, cell-free
# STATED_CONDITIONS: read-out: PPB (converted)
VALUE_KIND: fraction unbound
Write no unit; give the number alone.

Recorded result, CS(=O)(=O)Nc1ccc(OC[C@@H](O)CNCCc2ccc(Cl)c(Cl)c2)cc1 , fraction unbound: 0.12

----------
Please go through the items and note down their pIC50.
# TEST_TARGET: Glutamate NMDA receptor; Grin1/Grin2b (Rattus norvegicus, UniProt P35439+Q00960)
# TEST: Inhibition of rat recombinant NR1/NR2B receptor expressed in Xenopus oocytes assessed as inhibition of glutamate and glycine-induced evoked current by two electrode voltage clamp method
Entry type: numeric. Quantity: pIC50, the -log10 of concentration in molar units.

Reported pIC50 for CS(=O)(=O)Nc1ccc(OC[C@@H](O)CN(CCc2ccc(Cl)c(Cl)c2)Cc2ccccc2Br)cc1 was 7.42

Looking up CS(=O)(=O)Nc1ccc(OC[C@@H](O)CN(CCc2ccc(Cl)c(Cl)c2)Cc2cccc(O)c2)cc1 , I see its pIC50 listed as 6.62

CS(=O)(=O)Nc1ccc(OC[C@@H](O)CN(CCc2ccccc2)CCc2ccc(Cl)c(Cl)c2)cc1 has a reported pIC50 of 5.45

# compound Cc1ccccc1CN(CCc1ccc(Cl)c(Cl)c1)C[C@H](O)COc1ccc(NS(C)(=O)=O)cc1 ; its pIC50 = 5.24

Lab note: CCCCS(=O)(=O)Nc1ccc(OC[C@@H](O)CNCCc2ccc(Cl)c(Cl)c2)cc1 gave pIC50 of 5.17

Please fill in: pIC50 reported for CS(=O)(=O)Nc1ccc(OC[C@@H](O)CN(CCc2ccc(Cl)c(Cl)c2)Cc2ccc(F)c(F)c2F)cc1 = 7.29

Form field pIC50, entry CS(=O)(=O)Nc1ccc(OC[C@@H](O)CNCCc2cccc(O)c2)cc1 : 5.35

Measured pIC50, CS(=O)(=O)Nc1ccc(OC[C@@H](O)CN(CCc2ccc(Cl)c(Cl)c2)Cc2ccc(O)cc2O)cc1 : 6.84

----------
# TEST: Inhibition of sodium channel
pIC50: −log10 of the molar value.
VALUE_KIND: pIC50

# pIC50 (compound: CS(=O)(=O)Nc1ccc(OC[C@@H](O)CNCCc2ccc(Cl)c(Cl)c2)cc1 ) is < 5.30

----------
Give measured pIC50 for each item. Keep answers brief.
# TEST_TARGET: Glutamate NMDA receptor; Grin1/Grin2b (Rattus norvegicus, UniProt P35439+Q00960)
# TEST: Inhibition of rat recombinant NR1/NR2B receptor expressed in Xenopus oocytes assessed as inhibition of glutamate and glycine-induced evoked current by two electrode voltage clamp method
Please treat pIC50 as minus the base-10 logarithm of the molar concentration.

pIC50 reading for Cc1ccc(CCNC[C@H](O)COc2ccc(NS(C)(=O)=O)cc2)cc1C : 6.68

Noted for COc1cccc(CN(CCc2ccc(Cl)c(Cl)c2)C[C@H](O)COc2ccc(NS(C)(=O)=O)cc2)c1OC : its pIC50 reads 5.55

Reported pIC50 ( CS(=O)(=O)Nc1ccc(OC[C@@H](O)CN(CCO)CCc2ccc(Cl)c(Cl)c2)cc1 ) = 6.91

The reported pIC50 of the molecule CN(CCc1ccc(Cl)c(Cl)c1)C[C@@H](O)COc1ccc(NS(C)(=O)=O)cc1 was 6.60

Lab note: CS(=O)(=O)Nc1ccc(OC[C@@H](O)CN(CCc2ccc(Cl)c(Cl)c2)Cc2ccccc2F)cc1 gave pIC50 of 7.10

pIC50 reported for this molecule CS(=O)(=O)Nc1ccc(OC[C@@H](O)CN(CCc2ccc(Cl)c(Cl)c2)Cc2cccc(O)c2O)cc1 : 5.74

For record CS(=O)(=O)Nc1ccc(OC[C@@H](O)CN(CCc2ccc(Cl)c(Cl)c2)Cc2ccc(O)cc2)cc1 the listed pIC50 is 6.95

// sample CS(=O)(=O)Nc1ccc(OC[C@@H](O)CNCCc2ccccc2Cl)cc1 , its pIC50 was 6.37

----------
# TEST_TARGET: Glutamate NMDA receptor; Grin1/Grin2b (Rattus norvegicus, UniProt P35439+Q00960)
# TEST: Inhibition of rat recombinant NR1/NR2B receptor expressed in Xenopus oocytes assessed as inhibition of glutamate and glycine-induced evoked current by two electrode voltage clamp method
Hi there, I'd appreciate the recorded log10 IC50 for every entry that follows.
Answers are given as log10 of IC50 in nM.

The molecule listed as CS(=O)(=O)Nc1ccc(OC[C@@H](O)CN(CCc2ccc(Cl)c(Cl)c2)Cc2ccccc2C(F)(F)F)cc1 has a reported log10 IC50 of 3.57

Looking up CS(=O)(=O)Nc1ccc(OC[C@@H](O)CNCCc2ccc(F)c(F)c2)cc1 , I found its log10 IC50 recorded as 2.55

Value of measured log10 IC50 for the entry CS(=O)(=O)Nc1ccc(OC[C@@H](O)CNCCc2ccccc2F)cc1 : 2.76

log10 IC50 reading for CS(=O)(=O)Nc1ccc(OC[C@H](O)CN(CCc2ccc(Cl)c(Cl)c2)Cc2ccccc2O)cc1 : 2.64

The molecule identified as CS(=O)(=O)Nc1ccc(OC[C@@H](O)CNCCc2ccc(Cl)c(F)c2)cc1 registered its log10 IC50 at 1.83

Looking up CCCS(=O)(=O)Nc1ccc(OC[C@@H](O)CNCCc2ccc(Cl)c(Cl)c2)cc1 , I found its log10 IC50 recorded as 3.79

The molecule listed as CS(=O)(=O)Nc1ccc(OC[C@@H](O)CN(CCc2ccc(Cl)c(Cl)c2)Cc2c(F)c(F)c(F)c(F)c2F)cc1 has a reported log10 IC50 of 2.72

Measured log10 IC50, CS(=O)(=O)Nc1ccc(OC[C@@H](O)CN(CCc2ccc(Cl)c(Cl)c2)CC2CCCCC2)cc1 : 3.99

For record CS(=O)(=O)Nc1ccc(OC[C@@H](O)CNCCc2cccc(F)c2)cc1 the listed log10 IC50 is 2.93

Data point: CS(=O)(=O)Nc1ccc(OC[C@@H](O)CN(CCc2ccc(Cl)c(Cl)c2)Cc2ccc(F)cc2)cc1 ; log10 IC50 = 2.44

Data point: CC(=O)Nc1ccc(OC[C@@H](O)CNCCc2ccc(Cl)c(Cl)c2)cc1 ; log10 IC50 = 3.64

Reported log10 IC50 for CS(=O)(=O)Nc1ccc(OC[C@H](O)CNCCc2ccc(Cl)c(Cl)c2)cc1 was 2.27

According to the records, this molecule CS(=O)(=O)Nc1ccc(OC[C@@H](O)CN(CCc2ccc(Cl)c(Cl)c2)Cc2nccs2)cc1 displays log10 IC50 of 3.55

Looking up CC(=O)Oc1ccccc1CN(CCc1ccc(Cl)c(Cl)c1)C[C@H](O)COc1ccc(NS(C)(=O)=O)cc1 , I found its log10 IC50 recorded as 2.70

get_value(item= CS(=O)(=O)Nc1ccc(OC[C@@H](O)CN(CCc2ccc(Cl)c(Cl)c2)Cc2cccc3c2OCO3)cc1 , readout=log10 IC50) returns 3.70

Lab note: measured log10 IC50 of O=[N+]([O-])c1ccc(OC[C@@H](O)CNCCc2ccc(Cl)c(Cl)c2)cc1 was 3.97

The value of log10 IC50 measured for the molecule CS(=O)(=O)Nc1ccc(OC[C@@H](O)CN(CCc2ccc(Cl)c(Cl)c2)Cc2ccccc2[N+](=O)[O-])cc1 turned out to be 2.77

Briefly, log10 IC50 measured for CCCCN(CCc1ccc(Cl)c(Cl)c1)C[C@H](O)COc1ccc(NS(C)(=O)=O)cc1 : 2.62

src = ChEMBL document CHEMBL1140127
